Target Entity: S1P1/EDG1 (Homo sapiens, UniProt P21453)
Sequence (P21453 whole entry): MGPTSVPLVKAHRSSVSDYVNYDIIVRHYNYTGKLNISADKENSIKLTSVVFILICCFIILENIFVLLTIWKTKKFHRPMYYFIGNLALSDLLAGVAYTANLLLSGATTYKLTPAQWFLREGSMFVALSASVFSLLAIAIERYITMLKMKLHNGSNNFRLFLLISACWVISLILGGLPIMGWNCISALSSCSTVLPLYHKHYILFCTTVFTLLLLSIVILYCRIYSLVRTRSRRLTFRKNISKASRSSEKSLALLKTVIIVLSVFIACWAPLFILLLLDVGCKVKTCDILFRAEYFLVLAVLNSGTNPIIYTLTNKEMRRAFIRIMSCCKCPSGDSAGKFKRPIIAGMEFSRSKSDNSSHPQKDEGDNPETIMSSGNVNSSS
Protocol Description: S1P1 CRE-bla CHOK1 reporter assay, inhibition of Forskolin induced cAMP
Assay type: cell-based
Reported Conditions: agonist activity range, S1P1 CRE-bla CHOK1, 2 μM Forskolin; read-out: S1P1 ACTIVITY
pEC50: −log10 of the molar value.
Parameter: pEC50

Observe how each entry below is paired with its result.
[
  {
    "Compound": "CC(C)Oc1ccc(-c2nc(-c3cccc4c3CCC4NC(C)(C)CO)no2)cc1C#N (racemic)",
    "Target Entity": "S1P1/EDG1 (Homo sapiens, UniProt P21453)",
    "pEC50": "8.30 to 9.30"
  },
  {
    "Compound": "COCC(=O)NC1CCc2c(-c3noc(-c4ccc(OC(C)C)c(C#N)c4)n3)cccc21 (racemic)",
    "Target Entity": "S1P1/EDG1 (Homo sapiens, UniProt P21453)",
    "pEC50": "9.30 to 10.30"
  },
  {
    "Compound": "CC(C)Oc1ccc(-c2nc(-c3cccc4c3CC[C@H]4NCc3ccccc3)no2)cc1C#N",
    "Target Entity": "S1P1/EDG1 (Homo sapiens, UniProt P21453)",
    "pEC50": "8.30 to 9.30"
  },
  {
    "Compound": "CC(C)Oc1cc(-c2nc(-c3cccc4c3CC[C@H]4N)no2)ccc1C#N",
    "Target Entity": "S1P1/EDG1 (Homo sapiens, UniProt P21453)",
    "pEC50": "< 8.30"
  },
  {
    "Compound": "CCCN[C@H]1CCc2c(-c3noc(-c4ccc(OC(C)C)c(C#N)c4)n3)cccc21",
    "Target Entity": "S1P1/EDG1 (Homo sapiens, UniProt P21453)",
    "pEC50": "9.30 to 10.30"
  },
  {
    "Compound": "CC(C)Oc1ccc(-c2nc(-c3cccc4c3CC[C@@H]4N[C@@H](C)CO)no2)cc1C#N",
    "Target Entity": "S1P1/EDG1 (Homo sapiens, UniProt P21453)",
    "pEC50": "8.30 to 9.30"
  },
  {
    "Compound": "CCOCCS(=O)(=O)N[C@@H]1CCc2c(-c3noc(-c4ccc(OC(C)C)c(C#N)c4)n3)cccc21",
    "Target Entity": "S1P1/EDG1 (Homo sapiens, UniProt P21453)",
    "pEC50": "9.30 to 10.30"
  },
  {
    "Compound": "CC(C)Oc1ccc(-c2nc(-c3cccc4c3CC[C@H]4NC(=O)N3CCC(CO)CC3)no2)cc1C#N",
    "Target Entity": "S1P1/EDG1 (Homo sapiens, UniProt P21453)",
    "pEC50": "8.30 to 9.30"
  },
  {
    "Compound": "CC(C)Oc1ccc(-c2nc(-c3cccc4c3CCC4N3CC[C@@H](O)C3)no2)cc1C#N (mixture of isomers)",
    "Target Entity": "S1P1/EDG1 (Homo sapiens, UniProt P21453)",
    "pEC50": "8.30 to 9.30"
  },
  {
    "Compound": "CC(C)Oc1ccc(-c2nc(-c3cccc4c3CC[C@H]4N[C@@H](C)C(=O)O)no2)cc1C#N",
    "Target Entity": "S1P1/EDG1 (Homo sapiens, UniProt P21453)",
    "pEC50": "> 10.30"
  }
]

Dear colleague, I am looking for the recorded pEC50 of the following compound: CC(C)Oc1ccc(-c2nc(-c3cccc4c3CC[C@H]4NS(=O)(=O)CCCO)no2)cc1C#N
> 10.30

Tell me the measured pEC50 of Cc1cc(CN[C@H]2CCc3c(-c4noc(-c5ccc(OC(C)C)c(C#N)c5)n4)cccc32)[nH]n1 , please.
8.30 to 9.30

Looking for the measured pEC50 of CC(C)Oc1ccc(-c2nc(-c3cccc4c3CC[C@@H]4NS(=O)(=O)CC(=O)O)no2)cc1C#N , can you help?
9.30 to 10.30

If you can, please state the reported pEC50 value of CC(=O)N[C@H]1CCc2c(-c3noc(-c4ccc(OC(C)C)c(C#N)c4)n3)cccc21 .
9.30 to 10.30

Request the reported pEC50 associated with COCCN[C@H]1CCc2c(-c3noc(-c4ccc(OC(C)C)c(C#N)c4)n3)cccc21
9.30 to 10.30

Values from patent US9388147B2
